Data origin: the RNAGym collection of RNA variant scans (doi:10.1002/anie.201605470)

Recorded self-cleavage, one value per entry.
B1: Osa-1-4 twister ribozyme (parent)
chain: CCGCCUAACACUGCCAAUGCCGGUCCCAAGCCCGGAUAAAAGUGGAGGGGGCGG

# Variants of: B1
# assay-procedure: self-cleavage, relative activity (ratio to wild type); higher = more cleavage; co-transcriptional
Keep the answer to the number alone.

Q. Could you please provide reported self-cleavage for CCGCCUAACACUGCCAAUGCCGGUCCCAAACCCGGAGAAAAGUGGAGGGGGCGG ? Thanks!
A. 0.05

Q. Could you please provide reported self-cleavage for CCGCCUAACACUGCCAAUGCCGGUGCCAAGCCCGGAUAAAAGUGGAGGGGUCGG ? Thanks!
A. 0.04

Q. Could you please provide reported self-cleavage for CCGCCUAACACUGCCAAUGCCGGACCCAAGCCCGGAUAAAAGCGGAGGGGGCGG ? Thanks!
A. 0.07
